Data provenance is paper PMC12467246.

For each record, write down the corresponding pEC50.
# test_details: Nitric oxide (NO) radical-scavenging assay
# assay_context: sodium nitroprusside, 2.5 h 25 °C, Griess reagent, 540 nm
Lab note: report pEC50 as minus log10 of the concentration in molar units, number only.

Entry C[C@@H]1O[C@@H](OC[C@H]2O[C@@H](Oc3c(-c4ccc(O)c(O)c4)oc4cc(O)cc(O)c4c3=O)[C@H](O)[C@@H](O)[C@@H]2O)[C@H](O)[C@H](O)[C@H]1O [Rutin, quercetin-3-rutinoside] ; pEC50 = 3.42

Entry O=C(O)c1cc(O)c(O)c(O)c1 [Gallic acid, reference compound] ; pEC50 = 3.01

Entry O=C(C=Cc1ccc(O)c(O)c1)OC1C(O)CC(O)(C(=O)O)CC1O (stereo not drawn) ; pEC50 = 3.90

* * *

For each record, write down the corresponding pIC50.
# study_system: butyrylcholinesterase from horse (equine) serum (esBuChE) (Equus caballus)
# Construct: butyrylcholinesterase from horse (equine) serum (esBuChE); purchased Sigma C7512; host or cells: horse serum
# Sequence (P81908 whole entry): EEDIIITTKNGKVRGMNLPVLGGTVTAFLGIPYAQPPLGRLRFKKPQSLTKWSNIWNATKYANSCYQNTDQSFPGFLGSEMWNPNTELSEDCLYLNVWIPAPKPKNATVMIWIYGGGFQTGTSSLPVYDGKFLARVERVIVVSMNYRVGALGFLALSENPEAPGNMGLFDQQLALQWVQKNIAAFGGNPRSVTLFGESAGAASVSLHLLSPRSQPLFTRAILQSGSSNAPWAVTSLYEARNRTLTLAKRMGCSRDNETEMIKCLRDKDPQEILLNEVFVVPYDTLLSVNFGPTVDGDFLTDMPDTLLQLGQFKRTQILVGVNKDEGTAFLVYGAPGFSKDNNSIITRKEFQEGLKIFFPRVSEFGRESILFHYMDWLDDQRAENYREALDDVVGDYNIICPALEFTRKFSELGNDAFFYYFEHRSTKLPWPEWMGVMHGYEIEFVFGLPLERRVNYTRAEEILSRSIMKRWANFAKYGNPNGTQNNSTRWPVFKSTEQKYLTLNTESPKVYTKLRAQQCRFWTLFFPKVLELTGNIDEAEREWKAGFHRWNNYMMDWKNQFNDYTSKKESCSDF
# test_details: biochemical
pIC50: −log10 of the molar value.

Entry O=c1c(O[C@@H]2O[C@H](CO)[C@@H](O)[C@H](O)[C@H]2O)c(-c2ccc(O)c(O)c2)oc2cc(O)cc(O)c12 [Quercetin 3-β-D-glucoside, quercetin 3-β-D-glucoside] ; pIC50 = < 3.00

Entry CCN(CC)C(C)CN1c2ccccc2Sc2ccccc21 (stereo not drawn) [Ethopropazine, reference compound] ; pIC50 = 8.00

Entry C[C@@H]1O[C@@H](OC[C@H]2O[C@@H](Oc3c(-c4ccc(O)c(O)c4)oc4cc(O)cc(O)c4c3=O)[C@H](O)[C@@H](O)[C@@H]2O)[C@H](O)[C@H](O)[C@H]1O [Rutin, quercetin-3-rutinoside] ; pIC50 = < 3.00
